Numbers sourced from ChEMBL document CHEMBL1667831.

experiment: Cytotoxicity against sheep RBC assessed hemolysis; format: cell-based, Ovis aries, Erythrocyte; conditions: sheep red blood cells, read-out: HD50 (the source's name)

CPD_SMILES | QUANTITY_UNIT | MEASUREMENT_QUALIFIER | HC50
CC(=O)NCCCCCCc1cn(CCCCCc2c[nH]c(N)n2)nn1.Cl | µM | > | 800
CC(C)[C@@H]1CC[C@@H](C)C[C@H]1OC(=O)NCCCCCCc1c[nH]c(N)n1.Cl | µM | = | 229
CC(C)[C@@H]1CC[C@@H](C)C[C@H]1OC(=O)N(CCCCCCc1cn(CCCCCCc2c[nH]c(N)n2)nn1)CCc1ccccn1.Cl | µM | = | 46
CC(C)[C@@H]1CC[C@@H](C)C[C@H]1OC(=O)N(CCCCCCc1cn(CCCCCCCc2c[nH]c(N)n2)nn1)CCc1ccccn1.Cl | µM | = | 42.7
CC(C)[C@@H]1CC[C@@H](C)C[C@H]1OC(=O)NCCCn1cc(CCCCCc2c[nH]c(N)n2)nn1.Cl | µM | = | 318
CC(C)[C@@H]1CC[C@@H](C)C[C@H]1OC(=O)N(CCCCCCc1cn(CCCCCc2c[nH]c(N)n2)nn1)CCc1ccccn1.Cl | µM | = | 93.8
CC(C)[C@@H]1CC[C@@H](C)C[C@H]1OC(=O)NCCn1cc(CCCCCc2c[nH]c(N)n2)nn1.Cl | µM | = | 474
CC(C)[C@@H]1CC[C@@H](C)C[C@H]1OC(=O)NCCCCCc1c[nH]c(N)n1.Cl | µM | = | 464
CC(C)[C@@H]1CC[C@@H](C)C[C@H]1OC(=O)NCCCCCCCc1c[nH]c(N)n1.Cl | µM | = | 474
